# Test system: ragweed (common ragweed, Ambrosia elatior)
# Test: Test A preemergence, ragweed
# Type: in vivo
# Cond: 125 g ai/ha, 0 to 100 scale, 0 is no effect, 100 is complete control

{"columns": ["Molecule", "Experimental Target", "Ragweed plant response rating"],
 "data": [
  ["C[C@@H](Nc1nc(N)c(C(F)(F)F)c(C(F)(F)F)n1)c1cc2ccccc2o1 [Compound 65]", "ragweed (common ragweed, Ambrosia elatior)", 0],
  ["CC(Nc1ncc(C(F)(F)F)c(N)n1)c1csc2ccccc12 (stereo not drawn) [Compound 40]", "ragweed (common ragweed, Ambrosia elatior)", 90],
  ["CC[C@H](Nc1ncc(C(F)(F)F)c(N)n1)c1cc2ccccc2s1 [Compound 44]", "ragweed (common ragweed, Ambrosia elatior)", 20],
  ["C[C@H](Nc1ncc(C(F)(F)F)c(N)n1)c1coc2ccc(F)cc12 [Compound 56]", "ragweed (common ragweed, Ambrosia elatior)", 20],
  ["CC(C)[C@@H](Nc1ncc(C(F)(F)F)c(N)n1)c1cc2ccccc2s1 [Compound 50]", "ragweed (common ragweed, Ambrosia elatior)", 0],
  ["Cc1cc(F)cc(OCC(C)Nc2ncc(C(F)(F)F)c(N)n2)c1 (stereo not drawn) [Compound 39]", "ragweed (common ragweed, Ambrosia elatior)", 70],
  ["CC(Nc1ncc(C(F)(F)F)c(N)n1)c1coc2cc(Cl)ccc12 (racemic) [Compound 77]", "ragweed (common ragweed, Ambrosia elatior)", 80],
  ["C[C@@H](Nc1ncc(C#N)c(N)n1)c1cc2ccccc2s1 [Compound 104]", "ragweed (common ragweed, Ambrosia elatior)", 60],
  ["CC[C@H](Nc1ncc(C(F)(F)F)c(N)n1)c1coc2ccccc12 [Compound 81]", "ragweed (common ragweed, Ambrosia elatior)", 0]
]}

----------
# Tested on: foxtail, giant (Setaria faberii)
# Test: Test A postemergence, giant foxtail
# Type: in vivo
# Cond: 125 g ai/ha, 0 to 100 scale, 0 no effect, 100 complete control
// F strictly below 10 in Plant response rating, Foxtail, Giant; T otherwise

{"columns": ["Molecule", "Label"],
 "data": [
  ["CC(Nc1ncc(C(F)(F)F)c(N)n1)c1cc2ccc(Cl)cc2s1 (racemic)", "F"],
  ["Cc1cccc2sc([C@@H](C)Nc3ncc(C(F)(F)F)c(N)n3)cc12", "T"],
  ["CC[C@H](Nc1ncc(C(F)(F)F)c(N)n1)c1cc2ccc(F)cc2s1", "F"],
  ["C[C@@H](Nc1ncc(C(F)(F)F)c(N)n1)c1cc2c(F)ccc(F)c2s1", "T"],
  ["CC(Nc1ncc(C(F)(F)F)c(N)n1)c1cc2ccc(F)c(F)c2s1 (stereo not drawn)", "T"],
  ["Cc1ccc2c([C@H](Nc3ncc(C(F)(F)F)c(N)n3)C3CC3)coc2c1", "F"],
  ["C[C@H](Nc1nc(N)c(C(F)(F)F)c(C(F)(F)F)n1)c1cc2ccccc2o1", "F"],
  ["C[C@@H](Nc1ncc([S+](C)[O-])c(N)n1)c1cc2ccccc2s1 (stereo partly drawn)", "F"],
  ["C[C@H](Nc1nc(N)c(C(F)(F)F)c(C(F)(F)F)n1)c1cc2ccccc2s1", "T"],
  ["Nc1nc(N[C@H](c2coc3ccccc23)C2CC2)ncc1C(F)(F)F", "F"],
  ["Nc1nc(NC(c2cc3ccccc3o2)C2CC2)ncc1C(F)(F)F (stereo not drawn) [Compound 88]", "T"],
  ["C[C@@H](Nc1nc(N)c(C(F)(F)F)c(C(F)F)n1)c1cc2ccccc2o1", "F"],
  ["C[C@H](Nc1ncc(C(F)(F)F)c(N)n1)c1csc2ccccc12", "F"],
  ["Cc1ccc2c(C(C)Nc3ncc(C(F)(F)F)c(N)n3)coc2c1 (stereo not drawn)", "T"],
  ["Nc1nc(NC(c2cc3ccccc3s2)C2CC2)ncc1C(F)(F)F (racemic)", "T"]
]}
